B1: SMTNL2 (parent)
chain: ETAAGKGKGEARARLKRSQSFGVA

Variants of: B1
Assay: protein stability index of a GFP-peptide fusion (GPS, HEK-293T) (PSI 1-6); higher = more stable;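 note: lentivirally expressed fusions sorted by FACS into six bins by GFP to DsRed ratio, PSI derived from sequencing read proportions per bin multiplied by bin number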
Conditions: c terminus: a fixed tail appended
measuredQuantity: protein stability index
Numbers only.

I have 6 variants here; please give me protein stability index for each one.
1. ETVAGKGKGEARARLKRSQSFGVA [A3V]
2. ETAAGKGKGEARAMLKRSQSFGVA [R14M]
3. ETAAGKGKGQARARLKRSQSFGVA [E10Q]
4. ETAAGVGKGEARARLKRSQSFGVA [K6V]
5. ETAAGKGKGEARERLKRSQSFGVA [A13E]
6. ETAAGIGKGEARARLKRSQSFGVA [K6I]

4.33
4.27
3.9
4.23
4.95
4.54
